System: Huh7 ET cells
Conditions: read-out: HCV replicon CC50, concentration reducing cell viability by 50%, 72 h
quantity name: CC50 (µM)
Give bare numbers, in µM.

COc1cc(C2C(C(=O)Nc3ccc(Cl)c(Cl)c3)=C(C)NC(C)=C2C(=O)Nc2ccc(Cl)c(Cl)c2)ccc1O [Compound 8] = 14.2

For every listed record, write down its CC50.
1. S=c1[nH]n2c(COc3cc(Cl)c(OCc4nnc5sc(=S)[nH]n45)cc3Cl)nnc2s1 [Compound 7]
2. Clc1ccc(OCc2nn3c(CCc4nnc5sc(COc6ccc(Cl)cc6)nn45)nnc3s2)cc1 [Compound 2]

**A:**
1: 86.8; 2: 9.99

---

Answer each item with its documented NS3/4A A156T FC.
Test system: NS3/4A A156T
Assay type: biochemical, HCV genotype 1b, strain HC-J4
Conditions: fold change in IC50 for the mutant compared to WT
Description: Reagents were purchased from Sigma unless indicated otherwise. The FRET substrate Ac-DE-D(Edans)-EE-Abu-ψ-[COO]-AS-K(Dabsyl)-NH2, purified recombinant wild-type NS3/4A from HCV genotype 1b, strain HC-J4, and the mutants with the V36M, R155K, A156T, D168A and V170A resistance mutations were from AnaSpec (Fremont, CA). The NS3/4A construct represented the individual NS3 proteinase domain N-terminally fused with an NS4A co-factor and tagged with a 6xHis tag. […]
One number for each entry.

Guide cases for NS3/4A A156T FC, answers given:
S=c1[nH]nc(Nc2nc(SCc3ccccc3)nc3n[nH]c(Cc4nn[nH]n4)c23)s1 [Compound 6] = 3.24
Oc1ccccc1-c1nnc2sc3c(Cl)c4nn5c(-c6ccccc6O)nnc5sc4c(Cl)c3nn12 [Compound 4] = 18.17
O=C(Nc1ccccc1)c1cc(S(=O)(=O)Nc2nc3ncccc3[nH]2)c(SSc2cc(Cl)c(C(=O)Nc3ccccc3)cc2S(=O)(=O)Nc2nc3ncccc3[nH]2)cc1Cl [Compound 1] = 3.93
COc1cc(C2C(C(=O)Nc3ccc(Cl)c(Cl)c3)=C(C)NC(C)=C2C(=O)Nc2ccc(Cl)c(Cl)c2)ccc1O [Compound 8] = 9.2
Clc1ccc(OCc2nn3c(CCc4nnc5sc(COc6ccc(Cl)cc6)nn45)nnc3s2)cc1 [Compound 2] = 57.57

Here are 3 compounds. What values of NS3/4A A156T FC were reported for them?
1. S=c1[nH]n2c(COc3cc(Cl)c(OCc4nnc5sc(=S)[nH]n45)cc3Cl)nnc2s1 [Compound 7]
2. Cc1n[nH]c(=S)n1Nc1nc(SCc2ccccc2)nc2n[nH]c(Cc3nn[nH]n3)c12 [Compound 3]
3. Clc1ccc(Nc2nc(SCc3ccccc3)nc3n[nH]c(Cc4nc5ccccc5s4)c23)cc1 [Compound 5]

**A:**
0.9
45.14
48.95

---

Molecular target: NS3/4A V36M (Hepatitis C virus genotype 1b, UniProt O92972, V1062M)
Construct: The NS3/4A construct represented the individual NS3 proteinase domain N-terminally fused with an NS4A co-factor; 6xHis
Conditions: recombinant V36M mutant, FRET peptide substrate
pIC50: −log10 of the molar value.
Mark not fulfilled for pIC50 values under 6, and fulfilled for everything at or above.

// below: answered molecules
COc1cc(C2C(C(=O)Nc3ccc(Cl)c(Cl)c3)=C(C)NC(C)=C2C(=O)Nc2ccc(Cl)c(Cl)c2)ccc1O = not fulfilled
O=C(Nc1ccccc1)c1cc(S(=O)(=O)Nc2nc3ncccc3[nH]2)c(SSc2cc(Cl)c(C(=O)Nc3ccccc3)cc2S(=O)(=O)Nc2nc3ncccc3[nH]2)cc1Cl = fulfilled
Oc1ccccc1-c1nnc2sc3c(Cl)c4nn5c(-c6ccccc6O)nnc5sc4c(Cl)c3nn12 = fulfilled

**Q:** Does the reported pIC50 for Cc1n[nH]c(=S)n1Nc1nc(SCc2ccccc2)nc2n[nH]c(Cc3nn[nH]n3)c12 fall at or above the 6 mark?
**A:** not fulfilled

---

System: NS3/4A D168A
Type: biochemical, HCV genotype 1b, strain HC-J4
Details: fold change in IC50 for the mutant compared to WT
Text: Reagents were purchased from Sigma unless indicated otherwise. The FRET substrate Ac-DE-D(Edans)-EE-Abu-ψ-[COO]-AS-K(Dabsyl)-NH2, purified recombinant wild-type NS3/4A from HCV genotype 1b, strain HC-J4, and the mutants with the V36M, R155K, A156T, D168A and V170A resistance mutations were from AnaSpec (Fremont, CA). The NS3/4A construct represented the individual NS3 proteinase domain N-terminally fused with an NS4A co-factor and tagged with a 6xHis tag. […]
quantity name: NS3/4A D168A FC
Numbers only.

Example entries and their recorded answers appear below.
Oc1ccccc1-c1nnc2sc3c(Cl)c4nn5c(-c6ccccc6O)nnc5sc4c(Cl)c3nn12 = 9.3
S=c1[nH]n2c(COc3cc(Cl)c(OCc4nnc5sc(=S)[nH]n45)cc3Cl)nnc2s1 = 1
Clc1ccc(Nc2nc(SCc3ccccc3)nc3n[nH]c(Cc4nc5ccccc5s4)c23)cc1 = 33.4
COc1cc(C2C(C(=O)Nc3ccc(Cl)c(Cl)c3)=C(C)NC(C)=C2C(=O)Nc2ccc(Cl)c(Cl)c2)ccc1O = 1.6

Record for Cc1n[nH]c(=S)n1Nc1nc(SCc2ccccc2)nc2n[nH]c(Cc3nn[nH]n3)c12 under target or system NS3/4A D168A: NS3/4A D168A FC reported as 23.3

---

Molecular target: NS3/4A R155K (Hepatitis C virus genotype 1b, UniProt O92972, R1181K)
Construct: The NS3/4A construct represented the individual NS3 proteinase domain N-terminally fused with an NS4A co-factor; 6xHis
Conditions: recombinant R155K mutant, FRET peptide substrate
quantity name: pIC50
Answers are plain numbers, as −log10 of the molar value.

Cc1n[nH]c(=S)n1Nc1nc(SCc2ccccc2)nc2n[nH]c(Cc3nn[nH]n3)c12 [Compound 3] = 5.26
S=c1[nH]nc(Nc2nc(SCc3ccccc3)nc3n[nH]c(Cc4nn[nH]n4)c23)s1 [Compound 6] = 5.64
COc1cc(C2C(C(=O)Nc3ccc(Cl)c(Cl)c3)=C(C)NC(C)=C2C(=O)Nc2ccc(Cl)c(Cl)c2)ccc1O [Compound 8] = 4.96
Oc1ccccc1-c1nnc2sc3c(Cl)c4nn5c(-c6ccccc6O)nnc5sc4c(Cl)c3nn12 [Compound 4] = 5.43

The recorded pIC50 for Clc1ccc(OCc2nn3c(CCc4nnc5sc(COc6ccc(Cl)cc6)nn45)nnc3s2)cc1 [Compound 2] is 5.23

---

Target: NS3/4A V36M (Hepatitis C virus genotype 1b, UniProt O92972, V1062M)
Construct: The NS3/4A construct represented the individual NS3 proteinase domain N-terminally fused with an NS4A co-factor; 6xHis
Conditions: recombinant V36M mutant, FRET peptide substrate
Record form. Attribute: IC50. Fill in for each entry.
One number for each entry, in nM.

S=c1[nH]n2c(COc3cc(Cl)c(OCc4nnc5sc(=S)[nH]n45)cc3Cl)nnc2s1 = 1400
S=c1[nH]nc(Nc2nc(SCc3ccccc3)nc3n[nH]c(Cc4nn[nH]n4)c23)s1 = 990
Clc1ccc(Nc2nc(SCc3ccccc3)nc3n[nH]c(Cc4nc5ccccc5s4)c23)cc1 = 1070

Okay, next one:
IC50 for NS3/4A V36M (Hepatitis C virus genotype 1b, UniProt O92972, V1062M) with input Clc1ccc(OCc2nn3c(CCc4nnc5sc(COc6ccc(Cl)cc6)nn45)nnc3s2)cc1 equals 1530
